# ASSAYED TARGET: T1, recombinant biotinylated CD71 extracellular domain (Sino Biologics) with an N-terminal 6His tag (human, UniProt P02786 89-760, biotinylated (sites not given))
# T1 construct: extracellular domain; also called hCD71; huCD71
# T1 sequence (P02786 other isoform, or with tags, fused parts or gaps): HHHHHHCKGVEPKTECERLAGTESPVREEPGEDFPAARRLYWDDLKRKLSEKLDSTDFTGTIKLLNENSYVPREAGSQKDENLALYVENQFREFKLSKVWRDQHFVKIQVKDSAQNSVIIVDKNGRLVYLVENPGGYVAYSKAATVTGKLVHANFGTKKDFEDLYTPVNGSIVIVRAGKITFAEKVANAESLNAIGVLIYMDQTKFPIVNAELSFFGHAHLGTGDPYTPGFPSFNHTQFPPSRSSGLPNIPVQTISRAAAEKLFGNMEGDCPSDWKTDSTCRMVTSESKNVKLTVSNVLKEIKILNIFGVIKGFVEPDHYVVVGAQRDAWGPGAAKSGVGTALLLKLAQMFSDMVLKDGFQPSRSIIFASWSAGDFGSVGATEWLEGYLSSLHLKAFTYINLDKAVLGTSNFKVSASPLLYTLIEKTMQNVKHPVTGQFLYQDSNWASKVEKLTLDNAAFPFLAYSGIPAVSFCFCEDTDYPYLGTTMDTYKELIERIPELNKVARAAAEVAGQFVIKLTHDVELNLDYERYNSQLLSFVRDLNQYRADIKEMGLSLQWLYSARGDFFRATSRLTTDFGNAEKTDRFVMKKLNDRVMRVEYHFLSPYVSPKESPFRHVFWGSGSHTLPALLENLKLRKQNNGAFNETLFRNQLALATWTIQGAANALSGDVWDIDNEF
# TEST SUMMARY: screening ELISA
Give measured hCD71 for each item. Keep answers brief.
Answers are plain numbers.

>>> meas_value("SEQ ID NO 303 (designed binder, FN3 domain) MLPAPKNLVVSRVTEDSARLSWTAPDAAFDSFFIAYFEFANPGEAIVLTVPGSERSYDLTGLKPGTEYKVVIQGVKGGTPSEPLSAIFTT")
"3.51e+06"
>>> meas_value("SEQ ID NO 103 (designed binder, FN3 domain) MLLAPKNLVVSRVTEDSARLSWTAPDAAFDSFAIEYFEYTGEGEAIVLTVPGSERSYDLTGLKPGTEYYVGIYGVKGGYLSRPLSAIFTT")
"4.83e+06"
>>> meas_value("SEQ ID NO 136 (designed binder, FN3 domain) MLPAPKNLVVSRVTEDSARLSWTAPDAAFDSFFIYYIESYPAGEAIVLTVPGSERSYDLTGLKPGTEYWMGIDGVKGGRWSTPLSAIFTT")
"4.03e+06"
>>> meas_value("SEQ ID NO 166 (designed binder, FN3 domain) MLPAPKNLVVSRVTEDSARLSWTAPDAAFDSFTILYNEIQNVGEAIVLTVPGSERSYDLTGLKPGTEYDVWIEGVKGGELSWPLSAIFTT")
"2.42e+06"
>>> meas_value("SEQ ID NO 144 (designed binder, FN3 domain) MLPAPKNLVVSRVTEDSARLSWTAPDAAFDSFIIPYAEVRPDGEAIVLTVPGSERSYDLTGLKPGTEYSVLIHGVKGGKLSLPLSAIFTT")
"2.71e+06"
>>> meas_value("SEQ ID NO 213 (designed binder, FN3 domain) MLPAPKNLVVSRVTEDSARLSWTAPDAAFDSFWIYYWEIERAGEAIRLDVPGSERSYDLTGLKPGTEYRVDIWGVKGGPTSGPLRATFTT")
"2.11e+06"
>>> meas_value("SEQ ID NO 210 (designed binder, FN3 domain) MLPAPKNLVVSRVTEDSARLSWTAPDAAFDSFSIVYGERFVNGEAIVLTVPGSERSYDLTGLKPGTEYHVYIDGVKGGDLSWPLSAIFTT")
"1.16e+06"
>>> meas_value("SEQ ID NO 278 (designed binder, FN3 domain) MLPAPKNLVVSRVTEDSARLSWTAPDAAFDSFPIAYAEPRPDGEAIVLTVPGSERSYDLTGLKPGTEYSVLIHGVKGGHLSDPLSAIFTT")
"3.69e+06"

For SEQ ID NO 264 (designed binder, FN3 domain) MLPAPKNLVVSRVTEDSARLSWTAPDAAFDSFRIKYQEWWVEGEAIVLTVPGSERSYDLTGLKPGTEYVVQIAGVKGGLSSYPLSAIFTT the binder record lists hCD71 as 2.98e+06
